test: Catalepsy; format: in vivo, rat; details: Rattus norvegicus, po, 24 h, read-out: Catalep. ED50(po) 24 h
Counter-ions that a name gives are not always drawn.
MEASURED_METRIC: ED50

Study these solved cases before continuing.
MOLECULE | MEASURED_METRIC | ENDPOINT_RESULT
CN1CC=C(c2cn(-c3ccc(F)cc3)c3ccc(C(F)(F)F)cc23)CC1.O=C(O)C(=O)O [Lu 21-120, oxalate] | ED50 | 0.35 µmol/kg
CN1CC=C(c2cn(-c3ccc(F)cc3)c3ccc(F)cc23)CC1.Cl [Lu 21-018, hydrochloride] | ED50 | > 6.9 µmol/kg
O=[N+]([O-])c1ccc2c(c1)c(C1=CCNCC1)cn2-c1ccc(F)cc1 [Lu 23-133, maleate] | ED50 | > 11 µmol/kg

Turning now to a further molecule:
In plain terms, CN1CC=C(c2cn(-c3ccc(F)cc3)c3ccccc23)CC1.Cl [Lu 23-083, hydrochloride] has a documented ED50 of > 14 µmol/kg

----------
assay: in vivo; details: mouse, iv
MEASURED_METRIC: LD50 (µmol/kg)
Kindly answer with a numeric value in µmol/kg, unit omitted.

SMILES_CODE | LD50, µmol/kg
OCCN1CCN(c2cn(-c3ccc(F)cc3)c3ccc(C(F)(F)F)cc23)CC1 | 147

Pending compound:
Entry `CN1CC=C(c2cn(-c3ccc(F)cc3)c3ccc([N+](=O)[O-])cc23)CC1` ; LD50 = 276

----------
The listing below reports IC50 for molecules tested on serotomin2 (5-HT2) receptors (Rattus norvegicus, UniProt P14842).
Sequence (P14842 whole entry): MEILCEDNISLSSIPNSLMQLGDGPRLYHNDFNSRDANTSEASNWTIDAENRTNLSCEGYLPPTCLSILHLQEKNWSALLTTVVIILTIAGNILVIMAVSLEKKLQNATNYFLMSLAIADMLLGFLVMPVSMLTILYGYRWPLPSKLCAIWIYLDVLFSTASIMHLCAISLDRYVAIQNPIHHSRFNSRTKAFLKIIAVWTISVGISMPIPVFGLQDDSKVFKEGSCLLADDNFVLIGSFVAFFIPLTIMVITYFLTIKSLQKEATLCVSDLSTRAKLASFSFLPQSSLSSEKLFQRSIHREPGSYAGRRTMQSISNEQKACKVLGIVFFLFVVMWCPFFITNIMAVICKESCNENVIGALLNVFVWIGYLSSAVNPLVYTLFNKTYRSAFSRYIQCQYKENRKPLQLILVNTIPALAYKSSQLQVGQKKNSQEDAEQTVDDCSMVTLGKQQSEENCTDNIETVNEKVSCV
Structures can show the parent of a compound that is named as a salt.
The figure you give is taken to be in nM; do not add the unit.

Some molecules with known IC50 results, for comparison:
MOLECULE | EXPERIMENTAL_SYSTEM | MEASURED_METRIC | ENDPOINT_RESULT
OCCN1CC=C(c2cn(-c3ccc(F)cc3)c3ccc(C(F)(F)F)cc23)CC1 | serotomin2 (5-HT2) receptors (Rattus norvegicus, UniProt P14842) | IC50 | 15
O=C1OCCN1CCN1CC=C(c2cn(-c3ccc(F)cc3)c3ccc([N+](=O)[O-])cc23)CC1 | serotomin2 (5-HT2) receptors (Rattus norvegicus, UniProt P14842) | IC50 | 15
OCCN1CCN(c2cn(-c3ccc(F)cc3)c3ccc(C(F)(F)F)cc23)CC1 | serotomin2 (5-HT2) receptors (Rattus norvegicus, UniProt P14842) | IC50 | 7.4

response.value for CN1CCN(c2cn(-c3ccc(F)cc3)c3ccc(C(F)(F)F)cc23)CC1 [Lu 21-123, dihydrochloride] (field: IC50) = 6.7

Note to self: IC50 recorded for `OCCN1CC=C(c2cn(-c3ccc(F)cc3)c3ccc(F)cc23)CC1` was 34

Item: `CN1CC=C(c2cn(-c3ccccc3F)c3ccc([N+](=O)[O-])cc23)CC1` | IC50: 14

The recorded IC50 for entry CN1CCN(c2cn(-c3ccccc3)c3ccc(Cl)cc23)CC1 [Lu 23-015, reference compound] equals 3.9

IC50 in this record for CN1CC=C(c2cn(-c3ccc(F)cc3)c3ccc(F)cc23)CC1.Cl [Lu 21-018, hydrochloride] : 3

// field: IC50; key: Cc1ccc2c(c1)c(C1=CCN(C)CC1)cn2-c1ccc(F)cc1.Cl [Lu 20-089, hydrochloride] ; value = 1.8
